- Tested on: Orobanche cumana Wallr. seeds (race F; seed lots IN146 and IN153)
- experiment.notes: Germination of preconditioned Orobanche cumana seeds on glass fiber filter paper in petri dishes
- Type: in vivo
- condition.context: 0.01 mg l^−1; lot IN146, raceF; mean, N = 5 × 100 seeds, re-transformed data; Table 4
property.label: Germination % at concentration of 0.01 mg l^−1 (abcd %)
Numbers only, in abcd %.

CC1=CC(OC=C2C(=O)NC3c4c(Br)cccc4CC23)OC1=O (centres unmarked) [Compound A6] :: 59.2

We next turn to a different compound, shown below.
Tell me the measured Germination % at concentration of 0.01 mg l^−1 of CCCc1cccc2c1C1NC(=O)C(=COC3C=C(C)C(=O)O3)C1C2 (centres unmarked) [Compound A13] , please.
64.5
